tested on: MCF7/ADR; assay: Soft agar colony formation disk diffusion assay; format: cell-based, human; conditions: 100 μg/DISK
Quick rule: zone of inhibition of at least 200 Zone Units means MET, below that means NOT MET.

Could you tell me if the measured zone of inhibition of CC(=O)Oc1c2c(c(O)c3ccccc13)C(=O)C1=C(CC(C(C)=O)OC1)C2=O (stereo not shown) reaches 200 Zone Units or more?
NOT MET

Could you tell me if the measured zone of inhibition of CCOC(=O)C1CC2=C(CO1)C(=O)c1c(c(O)c3ccccc3c1OC(C)=O)C2=O (stereo not shown) reaches 200 Zone Units or more?
NOT MET

Could you tell me if the measured zone of inhibition of CCOC(=O)[C@@H]1CC2=C(C(=O)c3cc4ccccc4c(O)c3C2=O)[C@@H](O[C@H]2C[C@H](NC(=O)C(F)(F)F)[C@H](O)[C@H](C)O2)O1 reaches 200 Zone Units or more?
MET

Could you tell me if the measured zone of inhibition of CCOC(=O)C1CC2=C(CO1)C(=O)c1c(cc3ccccc3c1O)C2=O (stereo not shown) reaches 200 Zone Units or more?
NOT MET

Could you tell me if the measured zone of inhibition of CCOC(=O)C1CC2=C(CO1)C(=O)c1cc3ccccc3c(O)c1C2=O (stereo not shown) reaches 200 Zone Units or more?
NOT MET

Could you tell me if the measured zone of inhibition of CCOC(=O)[C@H]1CC2=C(C(=O)c3cc4ccccc4c(O)c3C2=O)[C@H](O[C@H]2C[C@H](NC(=O)C(F)(F)F)[C@H](O)[C@H](C)O2)O1 reaches 200 Zone Units or more?
MET

Could you tell me if the measured zone of inhibition of CCOC(=O)C1Cc2c(O)c3c(c(O)c2CS1)C(=O)c1ccccc1C3=O (stereo not shown) reaches 200 Zone Units or more?
NOT MET

----------
tested on: tumor cell lines
Quick rule for you: GI50 under 2000 nM gets YES, anything else gets NO.

Take the molecule COC(=O)[C@@H]1CC2=C(C(=O)c3cc4ccccc4cc3C2=O)[C@H](O[C@H]2C[C@H](NC(=O)C(F)(F)F)[C@H](O)[C@H](C)O2)O1 and say whether its GI50 is less than 2000 nM.
NO

Take the molecule COC(=O)[C@@H]1CC2=C(C(=O)c3c(c(OC)c4ccccc4c3O)C2=O)[C@@H](O[C@H]2C[C@H](NC(=O)C(F)(F)F)[C@H](O)[C@H](C)O2)O1 (mixture of isomers) and say whether its GI50 is less than 2000 nM.
NO

Take the molecule COC(=O)[C@@H]1CC2=C(C(=O)c3cc4ccccc4c(O)c3C2=O)[C@@H](O[C@H]2C[C@H](NC(=O)C(F)(F)F)[C@H](O)[C@H](C)O2)O1 and say whether its GI50 is less than 2000 nM.
NO

Take the molecule CCOC(=O)C1CC2=C(CO1)C(=O)c1c(cc3ccccc3c1O)C2=O (stereo not drawn) and say whether its GI50 is less than 2000 nM.
NO

Take the molecule CCOC(=O)[C@@H]1CC2=C(C(=O)c3c(cc4ccccc4c3O)C2=O)[C@@H](O[C@H]2C[C@H](NC(=O)C(F)(F)F)[C@H](O)[C@H](C)O2)O1 and say whether its GI50 is less than 2000 nM.
YES

Take the molecule CCOC(=O)[C@@H]1CC2=C(C(=O)c3cc4ccccc4c(O)c3C2=O)[C@@H](O[C@H]2C[C@H](NC(=O)C(F)(F)F)[C@H](O)[C@H](C)O2)O1 and say whether its GI50 is less than 2000 nM.
NO
